Assay: physchem
Where a name gives a salt, the structure may show the parent alone.

>  <COMPOUND>
CCN[C@H]1C[C@H](C)S(=O)(=O)c2sc(S(N)(=O)=O)cc21 [dorzolamide HCl]

>  <solubility class>
high solubility

$$$$
>  <COMPOUND>
CCNC(=O)CCC/C=C\C[C@@H]1[C@@H](/C=C/[C@@H](O)CCc2ccccc2)[C@H](O)C[C@@H]1O

>  <solubility class>
low solubility

$$$$
>  <COMPOUND>
C=C(CC)C(=O)c1ccc(OCC(=O)O)c(Cl)c1Cl [ethacrynic acid sodium salt]

>  <solubility class>
high solubility

$$$$
>  <COMPOUND>
C[C@@H]1C[C@H]2[C@@H]3CCC4=CC(=O)C=C[C@]4(C)[C@@]3(F)[C@@H](O)C[C@]2(C)[C@@]1(O)C(=O)COP(=O)(O)O [dexamethasone sodium phosphate]

>  <solubility class>
high solubility

$$$$
>  <COMPOUND>
C[C@@H]1C[C@H]2[C@@H]3CCC4=CC(=O)C=C[C@]4(C)[C@@]3(F)[C@@H](O)C[C@]2(C)[C@@]1(O)C(=O)CO

>  <solubility class>
low solubility

$$$$
>  <COMPOUND>
CC(C)(C)NC[C@H](O)COc1nsnc1N1CCOCC1 [timolol maleate]

>  <solubility class>
high solubility

$$$$
